- System: Setaria
- Experiment summary: Pre-emergence test, Setaria
- Format: in vivo
- Settings: 504 h, after three weeks, 0%=no action, 100%=total destruction, read-out: % Activity (damage to the plants)
Quantity: activity at 500 g/ha

## Input Looking for the measured activity at 500 g/ha of Cc1cc(C)c(-c2c(O)cc(-c3ccc(F)cc3)oc2=O)c(C)c1 [Example 52] , can you help?
## Output 70 to 100%

## Input Fill blank: measured activity at 500 g/ha of the compound CC(=O)Oc1c(C)c(C)oc(=O)c1-c1c(C)cc(C)cc1C [Example 81] is ____.
## Output 70 to 100%

## Input // returns reported activity at 500 g/ha for input CCc1c(C)oc(=O)c(-c2c(C)cc(C)cc2C)c1O [Example 35]
## Output 70 to 100%

## Input Which activity at 500 g/ha is reported for this compound? Cc1cc(C)c(-c2c(O)c(C(C)C)c(C)oc2=O)c(C)c1 [Example 33]
## Output 70 to 100%

## Input Fill blank: measured activity at 500 g/ha of the compound Cc1cc(C)c(-c2c(O)c3c(oc2=O)CCC3)c(C)c1 [Example 69] is ____.
## Output 70 to 100%

## Input Look up activity at 500 g/ha: CCOC(=O)Oc1c(C)c(C)oc(=O)c1-c1c(C)cc(C)cc1C [Example 88]
## Output 70 to 100%
